Would you kindly list pIC50 for each of these compounds?
# System: MDA-MB-231
# ASSAY_NAME: Cytotoxicity against human MDA-MB-231 cells after 72 hrs by MTT assay
# Type: functional, cell-based
# STUDY_CONDITIONS: MDA-MB-231, 72 h
Note on units: pIC50 is unitless, being -log10 of a concentration expressed in mol/L.

Item CC(=O)O[C@H]1C(=O)[C@@]2(C)[C@H]([C@H](OC(=O)c3ccccc3)[C@]3(O)C[C@H](OC(=O)[C@H](O[Si](OC(C)C)(OC(C)C)OC(C)C)[C@@H](NC(=O)c4ccccc4)c4ccccc4)C(C)=C1C3(C)C)[C@]1(OC(C)=O)CO[C@@H]1C[C@@H]2O has what recorded pIC50?
8.38

Item CC(=O)O[C@H]1C(=O)[C@]2(C)[C@@H](O[Si](OC(C)C)(OC(C)C)OC(C)C)C[C@H]3OC[C@@]3(OC(C)=O)[C@H]2[C@H](OC(=O)c2ccccc2)[C@]2(O)C[C@H](OC(=O)[C@H](O)[C@@H](NC(=O)c3ccccc3)c3ccccc3)C(C)=C1C2(C)C has what recorded pIC50?
6.59

Item CCO[Si](OCC)(OCC)O[C@@H](C(=O)O[C@H]1C[C@@]2(O)[C@@H](OC(=O)c3ccccc3)[C@@H]3[C@]4(OC(C)=O)CO[C@@H]4C[C@H](O)[C@@]3(C)C(=O)[C@H](OC(C)=O)C(=C1C)C2(C)C)[C@@H](NC(=O)c1ccccc1)c1ccccc1 has what recorded pIC50?
8.08

Item CCCCCCCCO[Si](OCCCCCCCC)(OCCCCCCCC)O[C@H]1C[C@H]2OC[C@@]2(OC(C)=O)[C@H]2[C@H](OC(=O)c3ccccc3)[C@]3(O)C[C@H](OC(=O)[C@H](O[Si](OCCCCCCCC)(OCCCCCCCC)OCCCCCCCC)[C@@H](NC(=O)c4ccccc4)c4ccccc4)C(C)=C([C@@H](OC(C)=O)C(=O)[C@]12C)C3(C)C has what recorded pIC50?
6.55

Item CC(=O)O[C@H]1C(=O)[C@@]2(C)[C@H]([C@H](OC(=O)c3ccccc3)[C@]3(O)C[C@H](OC(=O)[C@H](O[Si](OC4CC(C)CCC4C(C)C)(OC4CC(C)CCC4C(C)C)OC4CC(C)CCC4C(C)C)[C@@H](NC(=O)c4ccccc4)c4ccccc4)C(C)=C1C3(C)C)[C@]1(OC(C)=O)CO[C@@H]1C[C@@H]2O (stereo partly drawn) has what recorded pIC50?
6.23

Item CCO[Si](OCC)(OCC)O[C@H]1C[C@H]2OC[C@@]2(OC(C)=O)[C@H]2[C@H](OC(=O)c3ccccc3)[C@]3(O)C[C@H](OC(=O)[C@H](O)[C@@H](NC(=O)c4ccccc4)c4ccccc4)C(C)=C([C@@H](OC(C)=O)C(=O)[C@]12C)C3(C)C has what recorded pIC50?
7.74

Item CCCCCCCCO[Si](OCCCCCCCC)(OCCCCCCCC)O[C@H]1C[C@H]2OC[C@@]2(OC(C)=O)[C@H]2[C@H](OC(=O)c3ccccc3)[C@]3(O)C[C@H](OC(=O)[C@H](O)[C@@H](NC(=O)c4ccccc4)c4ccccc4)C(C)=C([C@@H](OC(C)=O)C(=O)[C@]12C)C3(C)C has what recorded pIC50?
6.54

Item CCO[Si](OCC)(OCC)O[C@@H](C(=O)O[C@H]1C[C@@]2(O)[C@@H](OC(=O)c3ccccc3)[C@@H]3[C@]4(OC(C)=O)CO[C@@H]4C[C@H](O)[C@@]3(C)C(=O)[C@H](O)C(=C1C)C2(C)C)[C@@H](NC(=O)OC(C)(C)C)c1ccccc1 has what recorded pIC50?
8.60

Item CCO[Si](O[C@@H](C(=O)O[C@H]1C[C@@]2(O)[C@@H](OC(=O)c3ccccc3)[C@@H]3[C@]4(OC(C)=O)CO[C@@H]4C[C@H](O)[C@@]3(C)C(=O)[C@H](O)C(=C1C)C2(C)C)[C@@H](NC(=O)OC(C)(C)C)c1ccccc1)(OC(C)(C)C)OC(C)(C)C has what recorded pIC50?
6.37

Item CCCCCCCCO[Si](OCCCCCCCC)(OCCCCCCCC)O[C@@H](C(=O)O[C@H]1C[C@@]2(O)[C@@H](OC(=O)c3ccccc3)[C@@H]3[C@]4(OC(C)=O)CO[C@@H]4C[C@H](O)[C@@]3(C)C(=O)[C@H](OC(C)=O)C(=C1C)C2(C)C)[C@@H](NC(=O)c1ccccc1)c1ccccc1 has what recorded pIC50?
8.15

Item CCO[Si](OCC)(OCC)O[C@H]1C[C@H]2OC[C@@]2(OC(C)=O)[C@H]2[C@H](OC(=O)c3ccccc3)[C@]3(O)C[C@H](OC(=O)[C@H](O[Si](OCC)(OCC)OCC)[C@@H](NC(=O)c4ccccc4)c4ccccc4)C(C)=C([C@@H](OC(C)=O)C(=O)[C@]12C)C3(C)C has what recorded pIC50?
7.92

Item CC(=O)O[C@H]1C(=O)[C@@]2(C)[C@H]([C@H](OC(=O)c3ccccc3)[C@]3(O)C[C@H](OC(=O)[C@H](O)[C@@H](NC(=O)c4ccccc4)c4ccccc4)C(C)=C1C3(C)C)[C@]1(OC(C)=O)CO[C@@H]1C[C@@H]2O has what recorded pIC50?
8.25

Item CC(=O)O[C@H]1C(=O)[C@]2(C)[C@@H](O[Si](OC(C)C)(OC(C)C)OC(C)C)C[C@H]3OC[C@@]3(OC(C)=O)[C@H]2[C@H](OC(=O)c2ccccc2)[C@]2(O)C[C@H](OC(=O)[C@H](O[Si](OC(C)C)(OC(C)C)OC(C)C)[C@@H](NC(=O)c3ccccc3)c3ccccc3)C(C)=C1C2(C)C has what recorded pIC50?
5.80

* * *

# ASSAY_NAME: Half life of the compound at C2 position in acetone-d6/D2O/CF3CO2H at 0.01 M by NMR spectroscopy analysis
# Format: physicochemical
PROPERTY_LABEL: t1/2 (min)
Only the number, expressed in min, is required.

Item CC(=O)O[C@@]12CO[C@@H]1C[C@H](O)[C@@]1(C)C(=O)[C@H](O)C3=C(C)[C@@H](OC(=O)[C@H](O[Si](OC(C)C)(OC(C)C)OC(C)C)[C@@H](NC(=O)OC(C)(C)C)c4ccccc4)C[C@@](O)([C@@H](OC(=O)c4ccccc4)[C@H]21)C3(C)C has what recorded t1/2?
260

Item CCO[Si](OCC)(OCC)O[C@@H](C(=O)O[C@H]1C[C@@]2(O)[C@@H](OC(=O)c3ccccc3)[C@@H]3[C@]4(OC(C)=O)CO[C@@H]4C[C@H](O)[C@@]3(C)C(=O)[C@H](OC(C)=O)C(=C1C)C2(C)C)[C@@H](NC(=O)c1ccccc1)c1ccccc1 has what recorded t1/2?
3.7

Item CC(=O)O[C@H]1C(=O)[C@@]2(C)[C@H]([C@H](OC(=O)c3ccccc3)[C@]3(O)C[C@H](OC(=O)[C@H](O[Si](OC(C)C)(OC(C)C)OC(C)C)[C@@H](NC(=O)c4ccccc4)c4ccccc4)C(C)=C1C3(C)C)[C@]1(OC(C)=O)CO[C@@H]1C[C@@H]2O has what recorded t1/2?
120

Item CCO[Si](OCC)(OCC)O[C@H]1C[C@H]2OC[C@@]2(OC(C)=O)[C@H]2[C@H](OC(=O)c3ccccc3)[C@]3(O)C[C@H](OC(=O)[C@H](O[Si](OCC)(OCC)OCC)[C@@H](NC(=O)c4ccccc4)c4ccccc4)C(C)=C([C@@H](OC(C)=O)C(=O)[C@]12C)C3(C)C has what recorded t1/2?
4.6

Item CCO[Si](OCC)(OCC)O[C@@H](C(=O)O[C@H]1C[C@@]2(O)[C@@H](OC(=O)c3ccccc3)[C@@H]3[C@]4(OC(C)=O)CO[C@@H]4C[C@H](O)[C@@]3(C)C(=O)[C@H](O)C(=C1C)C2(C)C)[C@@H](NC(=O)OC(C)(C)C)c1ccccc1 has what recorded t1/2?
11

Item CCCCCCCCO[Si](OCCCCCCCC)(OCCCCCCCC)O[C@@H](C(=O)O[C@H]1C[C@@]2(O)[C@@H](OC(=O)c3ccccc3)[C@@H]3[C@]4(OC(C)=O)CO[C@@H]4C[C@H](O)[C@@]3(C)C(=O)[C@H](OC(C)=O)C(=C1C)C2(C)C)[C@@H](NC(=O)c1ccccc1)c1ccccc1 has what recorded t1/2?
12

Item CCCCCCCCO[Si](OCCCCCCCC)(OCCCCCCCC)O[C@H]1C[C@H]2OC[C@@]2(OC(C)=O)[C@H]2[C@H](OC(=O)c3ccccc3)[C@]3(O)C[C@H](OC(=O)[C@H](O[Si](OCCCCCCCC)(OCCCCCCCC)OCCCCCCCC)[C@@H](NC(=O)c4ccccc4)c4ccccc4)C(C)=C([C@@H](OC(C)=O)C(=O)[C@]12C)C3(C)C has what recorded t1/2?
18

Item CC(=O)O[C@H]1C(=O)[C@]2(C)[C@@H](O[Si](OC(C)C)(OC(C)C)OC(C)C)C[C@H]3OC[C@@]3(OC(C)=O)[C@H]2[C@H](OC(=O)c2ccccc2)[C@]2(O)C[C@H](OC(=O)[C@H](O[Si](OC(C)C)(OC(C)C)OC(C)C)[C@@H](NC(=O)c3ccccc3)c3ccccc3)C(C)=C1C2(C)C has what recorded t1/2?
130

# credit: ChEMBL document CHEMBL3232927
